The entries below come with measured Kd values attached.
- SUBJECT_OF_TEST: T1, RAD-displayed Fragment 1A of human LGR5 (human)
- T1 construct: also called Frag1A
- T1 sequence (O75473 22-37, looked up): GSSPRSGVLLRGCPTH
- PROTOCOL_DETAILS: bio-layer interferometry (Octet), captured RAD-displayed fragment, 10 µM Fragment 1 peptide included
# unit: nM | format: bare number

As a guide, the following entries are already answered.
[[record]]
binder = "α-LGR5 clone 3 (antibody, mouse IgG1, kappa, V domains shown, Murine monoclonal antibody from hybridoma; also called hybridoma clone 3; antibody 3) VH: QVQLQQPGAELVKPGASVKLSCKASGYTFTSYWMQWVKQRPGQGLEWIGEIDPSDSYSNYNQKFKGKATLTVDTSSSTAYMQLSSLTSEDSAVYYCARSLSGYVDYWGQGTTLTVSS VL: DIQMTQTTSSLSASLGDRVTISCRASQDISNRLNWYQQKPDGTVKLLISYRSRLQSGVPSRFSGSGSGTDYSLTISNLEEEDIATYFCQQGNTLPPTFGGGTKLEVRR"
measured_result = 1

[[record]]
binder = "α-LGR5 clone 1 (antibody, mouse IgG1, kappa, V domains shown, Murine monoclonal antibody from hybridoma; also called hybridoma clone 1; antibody 1) VH: QVQLQQPGAELVKPGASVKLSCKASGYTFTSYWMQWVKQRPGQGLEWIGEIDPSDYYTNYNQKFKGKATLTVDTSSSTAYMQLSSLTSEDSAVYYCARSLSGYVDYWGQGTTLTVSS VL: DIQMTQSTSSLSASLGDRVTINCRASQDIRNRLNWYQQKPDGTVKLLISYRSRLQSGVPSRFSGSGSGTEYSLTISNLEQEDIATYFCQQGNTLPPTFGGGTKLEVRR"
measured_result = 0.76

[[record]]
binder = "α-LGR5 clone 4 (antibody, mouse IgG2b, kappa, V domains shown, Murine monoclonal antibody from hybridoma; also called hybridoma clone 4; antibody 4) VH: QVQLQQPGAELVKPGASVKLSCKASGYTFTDYWMQWVKQRPGQGLEWIGEIDPSDSYTNYNQKFQGKATLTVDTSSSTAYIQLSSLTSDDSAVYYCARSLSGSVDYWGQGTTLTVSS VL: DIQMTQTTSSLSASLGDRVTISCRASQDISNRLNWYQQKPDGTVKLLISYRSRLQSGVPSRFSGSGSGTDYSLTITNLEQEDIATYFCQQGNTLPPTFGGGTKLEVRR"
measured_result = 1.4


Query binder follows.
Lab note: measured Kd of α-LGR5 clone 2 (antibody, mouse IgG2b, kappa, V domains shown, Murine monoclonal antibody; In immunofluorescence and flow cytometry it carried a fluorophore (Alexa647 or DyLight 650) and is given as FI-α-LGR5 / FL-α-LGR5; also called a-LGR5; hybridoma clone 2) VH: QVQLQQPGAELVKPGASVKLSCKASGYTFTNYWMQWVKQRPGQGLEWIGEIDPSDSYTNYNQKFKGKATLTVDTSSSTAYMQLSSLTSEDSAVYYCARSLSGYVDYWGQGTTLTVSS VL: DIQMTQTTSSLSASLGDRVTISCRASQDISNRLNWYQQKPDGTVKLLISYRSRLHSGVPSRFSGSGSGTDYSLTISNLEQEDIATYFCQQGNSLPPTFGGGTKLEVRR was 1.1
